- Test system: diet-induced obese male Long-Evans rats
- Test: 3 day body weight change in diet-induced obese rats after oral dosing
- Assay type: in vivo, rat
- Run Conditions: 10 mg/kg oral once a day for 3 days, 3 day cumulative, relative to vehicle control
Readout: Body weight reduction @ 10 mg/Kg versus vehicle control. Data expressed in grams. (grams)

CN1CCC(CN(C)c2nc3cc(NC(=O)c4ccc(-c5ccc(F)cc5)cc4)ccc3o2)C1 (single isomer, unassigned); 5.8
CN1CCC(N(C)c2nc3cc(NC(=O)c4ccc(-c5ccc(F)cc5Cl)cc4)ccc3o2)CC1.Cl; 18
CN1CCC(N(C)c2nc3ccc(NC(=O)c4ccc(-c5ccc(F)cc5)cc4)cc3s2)C1 (single isomer, unassigned) [Example 107]; 7.1
CN1CCC(N(C)c2nc3ccc(NC(=O)c4ccc(-c5ccc(F)cc5)cc4)cc3s2)C1 (single isomer, unassigned) [Example 106]; 8.4

---

- Tested On: human MCHR1 (Homo sapiens)
- Construct: The full-length cDNA for human MCHR1 was cloned from a human adult brain cDNA library; expressed in transfected cells; host or cells: AV12 cells previously transfected with Galpha15
- Sequence (Q99705 whole entry): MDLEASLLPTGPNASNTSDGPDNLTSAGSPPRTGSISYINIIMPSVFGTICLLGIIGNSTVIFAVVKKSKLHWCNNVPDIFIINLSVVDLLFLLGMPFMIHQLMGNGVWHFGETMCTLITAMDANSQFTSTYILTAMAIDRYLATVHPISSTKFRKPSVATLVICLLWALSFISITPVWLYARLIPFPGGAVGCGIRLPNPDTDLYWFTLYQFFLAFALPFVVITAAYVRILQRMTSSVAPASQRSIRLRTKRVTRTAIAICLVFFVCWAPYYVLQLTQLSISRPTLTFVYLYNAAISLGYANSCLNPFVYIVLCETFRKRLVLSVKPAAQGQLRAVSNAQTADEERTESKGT
- Test: 125I-MCH competitive binding assay with clone 43 membranes
- Run Conditions: Average MCHR1 Ki (nM), Ki from IC50 by Cheng-Prusoff
Readout: Ki (nM)

CN1CCC(N(C)c2nc3cc(NC(=O)c4ccc(-c5ccc(F)cc5Cl)cc4)ccc3o2)CC1.Cl [Example 157, Hydrochloride]; 7.5
